Recorded Kd values for a group of compounds are listed next.
system tested: JAK1 JH2 (Homo sapiens, UniProt P23458)
Construct: JAK1 JH2
Sequence (P23458 583-855 limits assumed): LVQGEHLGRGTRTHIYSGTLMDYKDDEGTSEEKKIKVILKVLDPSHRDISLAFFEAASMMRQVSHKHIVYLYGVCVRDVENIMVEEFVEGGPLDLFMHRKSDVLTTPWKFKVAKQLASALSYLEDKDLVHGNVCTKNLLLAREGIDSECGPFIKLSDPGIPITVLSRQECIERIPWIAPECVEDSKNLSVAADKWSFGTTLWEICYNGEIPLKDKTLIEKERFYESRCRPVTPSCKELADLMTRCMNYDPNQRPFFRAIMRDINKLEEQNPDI
experiment notes: KINOMEscan binding, JAK1 JH2

CNc1cc2nn3c(cnc13)C(=O)N[C@@H]1CCC[C@H]1OCc1cc(c3nn(C)nc3c1)N2 [Compound 4] = 10 to 1000 nM
CNc1cc2nn3c(cnc13)C(=O)N[C@@H]1CCC[C@@H]1OCc1cc(c3nnn(C)c3c1)N2 [Compound 5] = 10 to 1000 nM

Query: Bench note: what Kd did CNc1cc2nc3c(cnn13)C(=O)N[C@@H]1CCC[C@H]1OCc1cc(c3nn(C)nc3c1)N2 [Compound 8] show?
Result: 10 to 1000 nM

Query: Bench note: what Kd did CNc1cc2nn3c(cnc13)C(=O)N[C@@H]1CCC[C@H]1OCc1cc(c3c(c1)nnn3C)N2 [Compound 3] show?
Result: 10000 to 30000 nM

Query: Bench note: what Kd did CNc1cc2nn3c(cnc13)C(=O)N[C@@H]1CCC[C@H]1OCc1cc(c3nnn(C)c3c1)N2 [Compound 49] show?
Result: 1000 to 10000 nM

Query: Bench note: what Kd did CNc1cc2nc3c(cnn13)C(=O)N1CC[C@H](C1)OCc1cc(c3nnn(C)c3c1)N2 [Compound 44] show?
Result: 1000 to 10000 nM

Query: Bench note: what Kd did CNc1cc2nn3c(cnc13)C(=O)N[C@@H]1CCC[C@@H]1OCc1cc(c3c(c1)nnn3C)N2 [Compound 6] show?
Result: 10 to 1000 nM

Query: Bench note: what Kd did CNc1cc2nc3c(cnn13)C(=O)N1CC[C@@H](C1)OCc1cc(c3nnn(C)c3c1)N2 [Compound 45] show?
Result: 1000 to 10000 nM

Query: Bench note: what Kd did CNc1cc2nn3c(cnc13)C(=O)N[C@@H]1CCC[C@@H]1OCc1cc(c3nn(C)nc3c1)N2 [Compound 7] show?
Result: 10 to 1000 nM

Query: Bench note: what Kd did CNc1cc2nc3c(cnn13)C(=O)N[C@@H]1CCC[C@@H]1OCc1cc(c3nnn(C)c3c1)N2 [Compound 9] show?
Result: 10 to 1000 nM

Query: Bench note: what Kd did CNc1cc2nn3c(cnc13)Nc1cc(cc3c1ncn3C)COC1CCCC1NC2=O (stereo not shown) [Compound 12] show?
Result: 10000 to 30000 nM

Query: Bench note: what Kd did [2H]C1([2H])O[C@@H]2CCC[C@H]2NC(=O)c2cnc3c(NC)cc(nn23)Nc2cc1cc1c2nnn1C [Compound 50] show?
Result: 1000 to 10000 nM

Query: Bench note: what Kd did [2H]C1([2H])O[C@H]2CCC[C@H]2NC(=O)c2cnc3c(NC)cc(nn23)Nc2cc1cc1c2nnn1C [Compound 51] show?
Result: 10 to 1000 nM

---

system tested: TYK2 JH1 (Homo sapiens, UniProt P29597)
Construct: TYK2 JH1
Sequence (P29597 897-1176 limits assumed): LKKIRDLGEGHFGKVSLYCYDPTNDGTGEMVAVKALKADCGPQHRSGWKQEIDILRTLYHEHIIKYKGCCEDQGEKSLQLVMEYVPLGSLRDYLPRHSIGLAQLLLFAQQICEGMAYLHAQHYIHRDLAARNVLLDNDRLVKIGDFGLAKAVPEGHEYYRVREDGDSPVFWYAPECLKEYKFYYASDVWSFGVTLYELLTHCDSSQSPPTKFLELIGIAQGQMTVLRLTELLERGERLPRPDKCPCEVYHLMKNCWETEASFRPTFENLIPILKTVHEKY
experiment notes: KINOMEscan binding, TYK2 JH1
reported endpoint: Kd

Look over these answered cases.
CNc1cc2nn3c(cnc13)C(=O)N[C@@H]1CCC[C@@H]1OCc1cc(c3c(c1)nnn3C)N2 [Compound 6] = ≥ 30 µM
CNc1cc2nn3c(cnc13)C(=O)N[C@@H]1CCC[C@H]1OCc1cc(c3nn(C)nc3c1)N2 [Compound 4] = 10 to 30 µM
CNc1cc2nn3c(cnc13)Nc1cc(cc3c1ncn3C)COC1CCCC1NC2=O (stereo not drawn) [Compound 12] = ≥ 30 µM

Here is the next item to consider.
Query: Bench note: what Kd did CNc1cc2nn3c(cnc13)C(=O)N[C@@H]1CCC[C@@H]1OCc1cc(c3nn(C)nc3c1)N2 [Compound 7] show?
Result: ≥ 30 µM

Where do these numbers come from? They come from patent US20250188093A1.
